Attribute: melting point
Where a name gives a salt, the structure may show the parent alone.
Value type: melting point

[[record]]
compound = "O=C1Nc2cc(F)ccc2C1CCCCN1CCc2sc(Cl)cc2C1 (centres unmarked) (as salt: hydrochloride) [Example 10, monohydrochloride]"
value_type = "melting point"
result = "214 to 216 °C"

[[record]]
compound = "O=C1Nc2ccccc2C1CCCCN1CCc2sc(Cl)cc2C1 (centres unmarked) (as salt: hydrochloride) [Example 8, monohydrochloride]"
value_type = "melting point"
result = "103 to 106 °C"

[[record]]
compound = "O=C1Nc2cc(F)ccc2C1CCCCN1CCc2sccc2C1 (centres unmarked) (as salt: hydrochloride) [Example 9, mono-hydrochloride]"
value_type = "melting point"
result = "194 to 197 °C"

[[record]]
compound = "O=C1Nc2ccccc2C1CCCCN1CCc2sccc2C1 (centres unmarked) (as salt: oxalate) [Example 6, monooxalate]"
value_type = "melting point"
result = "168 to 170 °C"

[[record]]
compound = "O=C1Nc2ccc(F)cc2C1CCCCN1CCc2sc(Cl)cc2C1 (centres unmarked) (as salt: hydrochloride) [Example 11, monohydrochloride]"
value_type = "melting point"
result = "161 to 163 °C"

[[record]]
compound = "O=C1Nc2ccccc2C1CCCCN1CC=C(c2cccc(C(F)(F)F)c2)CC1 (centres unmarked) (as salt: oxalate) [Example 5, monooxalate]"
value_type = "melting point"
result = "159 to 161 °C"

[[record]]
compound = "O=C1Nc2ccc(F)cc2C1CCCCN1CC=C(c2cccc(C(F)(F)F)c2)CC1 (centres unmarked) (as salt: hydrochloride) [Example 14, monohydrochloride]"
value_type = "melting point"
result = "201 to 204 °C"

[[record]]
compound = "O=C1Nc2cc(F)ccc2C1CCCCN1CC=C(c2cccc(C(F)(F)F)c2)CC1 (centres unmarked) (as salt: hydrochloride) [Example 12, monohydrochloride]"
value_type = "melting point"
result = "203 to 205 °C"

[[record]]
compound = "O=C1Nc2ccccc2C1CCCCN1CC=C(c2ccc(Cl)cc2)CC1 (centres unmarked) [Example 13]"
value_type = "melting point"
result = "122 to 124 °C"

[[record]]
compound = "O=C1Nc2ccccc2C1CCCCN1CC=C(c2ccccc2)CC1 (centres unmarked)"
value_type = "melting point"
result = "121 to 126 °C"

[[record]]
compound = "O=C1Nc2ccc(F)cc2C1CCCCN1CCc2sccc2C1 (centres unmarked) (as salt: hydrochloride) [Example 7, monohydrochloride]"
value_type = "melting point"
result = "192 to 194 °C"

